- tested.system: T1, B-cat-Halo (UniProt P35222 1-781)
- T1 sequence (looked up): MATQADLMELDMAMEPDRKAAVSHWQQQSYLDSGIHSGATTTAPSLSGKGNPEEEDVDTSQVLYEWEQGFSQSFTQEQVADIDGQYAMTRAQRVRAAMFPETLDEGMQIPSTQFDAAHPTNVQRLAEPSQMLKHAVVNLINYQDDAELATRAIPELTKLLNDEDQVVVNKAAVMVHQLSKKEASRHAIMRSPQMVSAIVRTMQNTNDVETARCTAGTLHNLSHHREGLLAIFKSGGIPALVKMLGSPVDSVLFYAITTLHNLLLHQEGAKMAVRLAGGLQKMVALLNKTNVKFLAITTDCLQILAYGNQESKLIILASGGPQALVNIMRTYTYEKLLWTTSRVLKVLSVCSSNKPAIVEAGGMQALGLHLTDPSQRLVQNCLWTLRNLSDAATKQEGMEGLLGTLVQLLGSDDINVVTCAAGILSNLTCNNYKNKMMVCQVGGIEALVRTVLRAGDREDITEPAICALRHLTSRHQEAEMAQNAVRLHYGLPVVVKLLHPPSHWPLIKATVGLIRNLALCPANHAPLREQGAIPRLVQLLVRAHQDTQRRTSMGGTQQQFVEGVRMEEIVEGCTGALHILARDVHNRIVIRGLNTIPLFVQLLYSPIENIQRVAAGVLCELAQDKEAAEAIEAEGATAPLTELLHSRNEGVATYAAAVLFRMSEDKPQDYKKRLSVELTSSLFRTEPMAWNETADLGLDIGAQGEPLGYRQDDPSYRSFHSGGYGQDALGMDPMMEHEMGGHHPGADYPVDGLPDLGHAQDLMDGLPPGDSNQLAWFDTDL
- assay.remarks: cell-based or functional assay
Starred links: 1 amine or outer side, 2 acyl side, 3 side chain; linkers in the order of their positions; H or OH if unused. Positions of bridges follow the written chain, without caps; N, C: chain ends. Non-standard residues stand in square brackets, D forms with d. Primed or numbered codes have the meaning given here. PyrS2″ = (S)-3-amino-1-((pent-4-en-1-yloxy)carbonyl)pyrrolidine-3-carboxylic acid (stapling residue), C=CCCCOC(=O)N1CC[C@@](N[*:1])(C(=O)[*:2])C1; B5(4) = 2,2-bis(4-pentenyl)glycine = 2-amino-2-(pent-4-en-1-yl)hept-6-enoic acid (stitching residue), C=CCCCC(CCCC=C)(N[*:1])C(=O)[*:2]; Phe(2-Cl) = N[C@@H](Cc1ccccc1Cl)C(=O)O; Bta = N[C@@H](Cc1csc2ccccc12)C(=O)O; αAllylPro = C=CC[C@@]1(C(=O)O)CCCN1; tBuAla = CC(C)(C)C[C@H](N)C(=O)O; 3Thi = N[C@@H](Cc1ccsc1)C(=O)O; Cha = N[C@@H](CC1CCCCC1)C(=O)O; Aib = CC(C)(N)C(=O)O
What NanoBRET Abs IC50 was measured for each of the following?
// return numeric value only (unit: µM, not printed)

Form: binder = Ac-[αAllylPro]D[Cha][B5(4)]DTAAFT[PyrS2″][Phe(2-Cl)][Bta]Q-NH2 (staple 1-4, 4-11) [I-1175] ; NanoBRET Abs IC50 = 27.3

The recorded NanoBRET Abs IC50 for Ac-[αAllylPro]D[tBuAla][B5(4)]DTAAFL[PyrS2″][3Thi][Bta]Q-NH2 (staple 1-4, 4-11) [I-1167] is 11.7

Note to self: NanoBRET Abs IC50 recorded for Ac-[αAllylPro]D[tBuAla][B5(4)]DTAAFL[PyrS2″][Phe(2-Cl)][Bta]S-NH2 (staple 1-4, 4-11) [I-1172] was 19.4

The reported value for Ac-[αAllylPro]D[tBuAla][B5(4)]DTAAFT[PyrS2″][3Thi][Bta]Q-NH2 (staple 1-4, 4-11) [I-1166] in terms of NanoBRET Abs IC50 is 14.6

# NanoBRET Abs IC50 (binder: Ac-[αAllylPro]D[Cha][B5(4)]DTAAFL[PyrS2″][3Thi][Bta]Q-NH2 (staple 1-4, 4-11) [I-1174] ) is 32.6

Input Ac-[αAllylPro]D[tBuAla][B5(4)]DDA[Aib]FL[PyrS2″][3Thi][Bta]Q-NH2 (staple 1-4, 4-11) [I-1178] . Output NanoBRET Abs IC50: 28.8

binder Ac-[αAllylPro]D[Cha][B5(4)]DTAAFT[PyrS2″][3Thi][Bta]Q-NH2 (staple 1-4, 4-11) [I-1173] , NanoBRET Abs IC50 observed: 17.2

response.value for Ac-[αAllylPro]D[tBuAla][B5(4)]DTAAFT[PyrS2″][3Thi][Bta]S-NH2 (staple 1-4, 4-11) [I-1170] (field: NanoBRET Abs IC50) = 13.5

Quick note, NanoBRET Abs IC50 for Ac-[αAllylPro]D[tBuAla][B5(4)]DTAAFL[PyrS2″][3Thi][Bta]S-NH2 (staple 1-4, 4-11) [I-1171] landed at 28.8

Memo: Ac-[αAllylPro]D[tBuAla][B5(4)]DTAAFT[PyrS2″][Phe(2-Cl)][Bta]Q-NH2 (staple 1-4, 4-11) [I-1168] , reported NanoBRET Abs IC50: 31.4

According to the records, this binder Ac-[αAllylPro]D[tBuAla][B5(4)]DD[Aib]AFL[PyrS2″][3Thi][Bta]Q-NH2 (staple 1-4, 4-11) [I-1177] displays NanoBRET Abs IC50 of 4.3
